- System: ACHN renal
- EXPERIMENT SUMMARY: NCI tumour cell line growth inhibition, 48 h; in the data active = GI50 below about 0.43 µM; inactive = the rest
Can you answer with just one of these options? TRUE = active, FALSE = inactive

Answered examples (3):
1) CCN(CC)CCCC(C)Nc1cc(-c2cccc(OC(F)(F)F)c2)nc2ccc(N3CCCC3)cc12 (stereo not given)
TRUE
2) COc1cc(C2C3=C(COC3=O)N(CCO)c3cc4c(cc32)OCCO4)cc(OC)c1OC (stereo not given)
FALSE
3) COC(=O)c1c(-c2cccs2)oc(-c2cccs2)c1C(=O)OC
FALSE

Hi, sorry to bother you, what did the test record for Cc1cc(N(CCOS(C)(=O)=O)CCOS(C)(=O)=O)ccc1C(=O)O ?
FALSE

For this compound, state the assay outcome: O=C1/C(=C/c2ccc(F)cc2)CN(C(=O)CCN2CCC(=NO)CC2)C/C1=C\c1ccc(F)cc1
FALSE

====

- Tested on: MOLT-4 leukemia
- EXPERIMENT SUMMARY: NCI tumour cell line growth inhibition, 48 h
The reader will find reported TGI values listed item by item below.

Recorded TGI, per entry:
1. CC(=O)OCC1OC(n2c(C)c(C)c(C)c(C#N)c2=S)C(OC(C)=O)C(OC(C)=O)C1OC(C)=O (stereo unspecified)
> 100 µM
2. O=C(NC(=O)c1c(Cl)nc2sccn12)Nc1ccc(Cl)cc1
> 100 µM
3. CCOC(=O)Nc1ccc(S(=O)(=O)Nn2cnnc2)cc1
> 100 µM
4. O=C(/C=C/C=C/c1ccccc1)c1ccco1
21.5 µM
5. O=C(C(=O)n1ncc(Cl)c(Cl)c1=O)n1ncc(Cl)c(Cl)c1=O
43.7 µM
6. Clc1cc(Cl)ncn1
> 100 µM

With those in mind, consider the next compound.
Reported TGI of O=[N+]([O-])c1ccc(Cl)c(CNc2ncnc3c2ncn3C2CCCCO2)c1 (stereo unspecified) : 88.2 µM

====

- Test system: SF-295 CNS
- EXPERIMENT SUMMARY: NCI tumour cell line growth inhibition, 48 h
Cut-off 30 µM on TGI, inclusive. At or above means true (1); below means false (0).

Illustrative cases are given below, each with its answer.
1) CNCCCNc1nc2ccccc2c2c(=O)c3cc(OC)ccc3sc12
false (0)
2) O=C(C(=O)n1ncc(Cl)c(Cl)c1=O)n1ncc(Cl)c(Cl)c1=O
true (1)
3) NC(=O)CN1C=CCC(C(N)=O)=C1
true (1)
4) C1CCCCc2nc3c(nc2CCC1)c1nc2c(nc1c1nc4c(nc31)CCCCCCCC4)CCCCCCCC2
true (1)

Attention now turns to another entry.
Reported TGI at or above 30 µM? O=c1[nH]c(=O)n(C2OC(CO)C(O)C2O)cc1OCCCc1ccccc1 (centres undefined)
true (1)

====

- Test system: M14 melanoma
- EXPERIMENT SUMMARY: NCI tumour cell line growth inhibition, 48 h
PROPERTY MEASURED: TGI

Would you please look over these solved cases?
1. COc1cccc(C2c3cc4c(cc3OC(Nc3ccccc3)C2C)OCO4)c1O (stereo not given)
15.1 µM
2. CSc1nc2nc3c(nc2c(=O)n1C)C(=O)c1ccccc1C3=O
0.252 µM
3. Cc1nc(Nc2ccccc2Cl)sc1C(=O)CC(=O)C(N)=O
> 100 µM

Briefly, TGI measured for COc1cc(Oc2nc3cc(F)c(F)cc3nc2-c2ccccc2)cc(OC)c1OC : > 100 µM

Entry COc1ccccc1NC(=O)C1=C(C)NC(C)=C(C(=O)Nc2ccccc2OC)C1/C=C/c1ccccc1 ; TGI = > 100 µM
